# PROCEDURE DETAILS: CHI Log D procedure
# Type: physicochemical
# EXPERIMENTAL CONDITIONS: pH 7.4, CHI Log D
REPORTED PROPERTY: chromatographic logD
Number, no unit, nothing else.

Example entries begin here.
[
  {
    "MOLECULE": "CC(=O)N[C@@H](Cc1ccccc1)C(=O)N[C@@H](CC(=O)O)C(=O)N[C@@H](C)C(=O)N[C@]1(C)CCC=CCOC(=O)N(C)CCC[C@@](C)(C(=O)N[C@@H](Cc2ccccc2)C(=O)N[C@@H](Cc2c[nH]c3ccccc23)C(=O)N[C@@H](CCC(N)=O)C(N)=O)NC(=O)[C@H](C(C)C)NC(=O)[C@H](Cc2ccccc2)NC(=O)[C@H](C)NC(=O)[C@H](C)NC(=O)[C@H](CC(=O)O)NC(=O)[C@H](CC(=O)O)NC1=O [I-36]",
    "chromatographic logD": 1.13
  },
  {
    "MOLECULE": "CC(=O)N1CCC[C@]12CC=CCCCC1(CCCC=CCCCOC(=O)N3CC[C@@](C(=O)N[C@@H](Cc4ccccc4Cl)C(=O)N[C@@H](Cc4csc5ccccc45)C(=O)N[C@@H](C(N)=O)[C@H](C)O)(C3)NC(=O)[C@H](Cc3ccccc3)NC(=O)[C@H](Cc3ccccc3)NC(=O)[C@H](C)NC(=O)[C@H](C)NC(=O)[C@H](CCC(=O)O)NC(=O)[C@H](CC(=O)O)NC1=O)NC(=O)[C@H](CC(C)(C)C)NC(=O)[C@H](CC(=O)O)NC2=O (stereo partly drawn) [I-1038]",
    "chromatographic logD": 2.73
  },
  {
    "MOLECULE": "CC(=O)N1CCC[C@]12CC=CCCCC1(CCCC=CCCCOC(=O)N3CC[C@@](C(=O)N[C@@H](Cc4ccccc4)C(=O)N[C@@H](Cc4csc5ccccc45)C(=O)N[C@@H](CO)C(N)=O)(C3)NC(=O)[C@H](CO)NC(=O)[C@H](CC3CCCCC3)NC(=O)[C@H](C)NC(=O)[C@H](C)NC(=O)[C@H](CC(=O)O)NC(=O)[C@H](CC(=O)O)NC1=O)NC(=O)[C@H](CC(C)(C)C)NC(=O)[C@H](CC(=O)O)NC2=O (stereo partly drawn) [I-1105]",
    "chromatographic logD": 2.33
  },
  {
    "MOLECULE": "CC(=O)N[C@@H](Cc1ccccc1)C(=O)N[C@@H](CC(=O)O)C(=O)N[C@@H](C)C(=O)N[C@]1(C)CCCCCCC=CCOC(=O)N2CC[C@@](C(=O)N[C@@H](Cc3ccccc3)C(=O)N[C@@H](Cc3c[nH]c4ccccc34)C(=O)N[C@@H](CCC(N)=O)C(N)=O)(C2)NC(=O)[C@H](C(C)C)NC(=O)[C@H](Cc2ccccc2)NC(=O)[C@H](CC(=O)O)NC(=O)[C@H](C)NC(=O)[C@H](CC(=O)O)NC(=O)[C@H](CC(=O)O)NC1=O (single isomer, unassigned) [I-19]",
    "chromatographic logD": 0.948
  },
  {
    "MOLECULE": "CC(=O)N1CCC[C@]12CC=CCCCC1(CCCC=CCCCOC(=O)N3CC[C@@](C(=O)N[C@@H](Cc4ccsc4)C(=O)N[C@@H](Cc4csc5ccccc45)C(=O)N[C@@H](CCC(N)=O)C(N)=O)(C3)NC(=O)[C@H](CC(N)=O)NC(=O)[C@H](Cc3ccccc3)NC(=O)[C@H](CCCCNC(=O)c3ccc(CN(C)C)cc3)NC(=O)[C@H](C)NC(=O)[C@H](CC(=O)O)NC(=O)[C@H](CC(=O)O)NC1=O)NC(=O)[C@H](CC(C)(C)C)NC(=O)[C@H](CC(=O)O)NC2=O (stereo partly drawn) [I-891]",
    "chromatographic logD": 1.53
  },
  {
    "MOLECULE": "CC(=O)N1CCC[C@]12CC=CCCCC1(CCCC=CCCCCCC[C@@](C)(C(=O)N[C@@H](Cc3ccccc3)C(=O)N[C@@H](Cc3csc4ccccc34)C(=O)N[C@@H](Cc3c[nH]cn3)C(=O)N[C@@H](C)C(N)=O)NC(=O)[C@H](CC(N)=O)NC(=O)[C@H](Cc3ccccc3)NC(=O)[C@H](C)NC(=O)[C@H](C)NC(=O)[C@H](CCC(=O)O)NC(=O)[C@H](CC(=O)O)NC1=O)NC(=O)[C@H](CC(C)C)NC(=O)[C@H](CC(=O)O)NC2=O (stereo partly drawn) [I-738]",
    "chromatographic logD": 2.46
  }
]

Record request: chromatographic logD value, item CC(=O)N1CCC[C@]12CC=CCCCC1(CCCC=CCCCCCC[C@@](C)(C(=O)N[C@@H](Cc3ccncc3)C(=O)N[C@@H](Cc3csc4ccccc34)C(=O)N[C@@H](CCC(N)=O)C(N)=O)NC(=O)[C@H](C(C)C)NC(=O)[C@H](Cc3ccccc3)NC(=O)[C@H](C)NC(=O)[C@H](C)NC(=O)[C@H](CCC(=O)O)NC(=O)[C@H](CC(=O)O)NC1=O)NC(=O)[C@H](C)NC(=O)[C@H](CC(=O)O)NC2=O (stereo partly drawn) [I-385] 1.71

Record request: chromatographic logD value, item CC(=O)N1CCC[C@]12CC=CCCCC1(CCCC=CCCCOC(=O)N3CC[C@@](C(=O)N[C@@H](Cc4ccccc4Cl)C(=O)N[C@@H](Cc4csc5ccccc45)C(=O)N[C@@H](CO)C(N)=O)(C3)NC(=O)[C@H](CC(C)C)NC(=O)[C@H](Cc3ccccc3)NC(=O)[C@H](C)NC(=O)[C@H](C)NC(=O)[C@H](CC(=O)O)NC(=O)[C@H](CC(=O)O)NC1=O)NC(=O)[C@H](Cc1ccc3ccccc3c1)NC(=O)[C@H](CC(=O)O)NC2=O (stereo partly drawn) [I-1117] 2.61

Record request: chromatographic logD value, item CC[C@H](C)[C@@H]1NC(=O)[C@H](CC(=O)O)NC(=O)[C@]2(CC=CCCCC3(CCCC=CCCCCCC[C@@](C)(C(=O)N[C@@H](Cc4ccccc4)C(=O)N[C@@H](Cc4csc5ccccc45)C(=O)N[C@@H](CCC(N)=O)C(N)=O)NC(=O)[C@H](CC(N)=O)NC(=O)[C@H](Cc4ccccc4)NC(=O)[C@H](C)NC(=O)[C@H](C)NC(=O)[C@H](CN(CC(=O)O)CC(F)(F)F)NC(=O)[C@H](CC(=O)O)NC3=O)NC1=O)CCCN2C(C)=O (stereo partly drawn) [I-699] 2.63

----------
# IC50 per entry
# TARGET UNDER TEST: full-length beta-Catenin (Uniprot ID P35222) (Homo sapiens, UniProt P35222)
# Construct: 10 nM full-length beta-Catenin (Uniprot ID P35222)
# Sequence (P35222 whole entry): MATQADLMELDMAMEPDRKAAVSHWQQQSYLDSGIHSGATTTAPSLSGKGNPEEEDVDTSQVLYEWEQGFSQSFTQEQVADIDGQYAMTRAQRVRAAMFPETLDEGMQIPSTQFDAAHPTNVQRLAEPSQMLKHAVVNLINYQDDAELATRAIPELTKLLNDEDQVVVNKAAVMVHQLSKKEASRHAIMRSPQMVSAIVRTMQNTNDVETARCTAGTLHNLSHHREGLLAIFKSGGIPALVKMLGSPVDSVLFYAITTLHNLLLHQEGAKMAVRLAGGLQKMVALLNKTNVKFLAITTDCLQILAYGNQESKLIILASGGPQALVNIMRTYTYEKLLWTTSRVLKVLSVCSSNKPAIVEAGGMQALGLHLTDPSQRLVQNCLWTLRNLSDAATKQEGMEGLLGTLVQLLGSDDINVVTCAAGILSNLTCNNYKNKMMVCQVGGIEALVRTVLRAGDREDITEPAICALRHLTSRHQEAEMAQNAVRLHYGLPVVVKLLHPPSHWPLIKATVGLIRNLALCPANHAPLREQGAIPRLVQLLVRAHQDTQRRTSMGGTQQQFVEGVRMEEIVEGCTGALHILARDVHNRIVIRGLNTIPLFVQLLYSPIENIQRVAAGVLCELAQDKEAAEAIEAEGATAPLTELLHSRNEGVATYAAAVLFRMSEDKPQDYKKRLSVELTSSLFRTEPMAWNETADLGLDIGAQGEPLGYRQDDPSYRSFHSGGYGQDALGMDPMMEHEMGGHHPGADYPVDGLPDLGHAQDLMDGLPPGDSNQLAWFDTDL
# PROCEDURE DETAILS: Fluorescence polarization IC50 (beta-catenin / 5FAM-TCF4 10-53 competition)
# Format: binding
# EXPERIMENTAL CONDITIONS: fluorescence polarization; read-out: beta-Catenin FP IC50
State just the number; it will be interpreted in µM.

Record request: IC50 value, item CC(=O)N1CCC[C@]12CC=CCCCC1(CCCC=CCCCOC(=O)N3CC[C@@](C(=O)N[C@@H](Cc4ccccc4C(F)(F)F)C(=O)N[C@@H](Cc4csc5ccccc45)C(=O)N[C@@H](CCC(N)=O)C(N)=O)(C3)NC(=O)[C@H](Cc3ccccc3)NC(=O)[C@H](Cc3ccccc3)NC(=O)[C@H](C)NC(=O)[C@H](C)NC(=O)[C@H](Cc3ccccc3C(=O)O)NC(=O)[C@H](CC(=O)O)NC1=O)NC(=O)[C@H](CC(C)(C)C)NC(=O)[C@H](CC(=O)O)NC2=O (stereo partly drawn) 0.048

Record request: IC50 value, item CC(=O)N1CCC[C@]12CC=CCCCC1(CCCC=CCCCCCC[C@@](C)(C(=O)N[C@@H](Cc3ccccc3)C(=O)N[C@@H](Cc3csc4ccccc34)C(=O)N[C@@H](CCC(N)=O)C(N)=O)NC(=O)[C@H](CC(N)=O)NC(=O)[C@H](Cc3cscn3)NC(=O)[C@H](C)NC(=O)[C@H](C)NC(=O)[C@H](CCC(=O)O)NC(=O)[C@H](CC(=O)O)NC1=O)NC(=O)[C@H](C)NC(=O)[C@H](CC(=O)O)NC2=O (stereo partly drawn) 2.55

Record request: IC50 value, item CNC(=O)CC[C@@H]1NC(=O)[C@H](CCC(N)=O)NC(=O)[C@H](CC(=O)O)NC(=O)C2(CCCC=CCCCOC(=O)N3CC[C@@](C(=O)N[C@@H](Cc4ccccc4)C(=O)N[C@@H](Cc4csc5ccccc45)C(=O)N[C@@H](CC(=O)N4CCOCC4)C(N)=O)(C3)NC(=O)[C@H](CC(C)C)NC(=O)[C@H](Cc3ccccc3)NC(=O)[C@H](C)NC1=O)CCCC=CC[C@]1(CCCN1C(C)=O)C(=O)N[C@@H](CC(N)=O)C(=O)N[C@@H](CC1CCCCC1)C(=O)N2 (stereo partly drawn) 0.214

Record request: IC50 value, item CC(=O)N1CCC[C@]12CC=CCCCC1(CCCC=CCCCOC(=O)N3CC[C@@](C(=O)N[C@@H](Cc4ccccc4)C(=O)N[C@@H](Cc4csc5ccccc45)C(=O)N[C@@H](CCC(N)=O)C(N)=O)(C3)NC(=O)[C@H](CC(C)C)NC(=O)[C@H](Cc3ccccc3)NC(=O)[C@H](C)NC(=O)[C@H](CCO)NC(=O)[C@H](CCC(N)=O)NC(=O)[C@H](CC(=O)O)NC1=O)NC(=O)[C@H](CC1CCCCC1)NC(=O)[C@H](CC(N)=O)NC2=O (stereo partly drawn) [I-2355] 0.417

Record request: IC50 value, item CC(C)C[C@@H]1NC(=O)[C@H](Cc2ccccc2)NC(=O)[C@H](C)NC(=O)[C@H](C)NC(=O)[C@H](Cc2cccc(C(=O)O)c2)NC(=O)[C@H](CC(=O)O)NC(=O)C2(CCCCCCCCOC(=O)N3CC[C@@](C(=O)N[C@@H](Cc4ccccc4C(F)(F)F)C(=O)N[C@@H](Cc4csc5ccccc45)C(=O)N[C@@H](CCC(N)=O)C(N)=O)(C3)NC1=O)CCCCCC[C@@]13CCCN1C(=O)CCCCC[C@H](NC(=O)[C@H](CC(=O)O)NC3=O)C(=O)N2 (stereo partly drawn) 0.102

Record request: IC50 value, item CC(=O)N1CCC[C@]12CC=CCCCC1(CCCC=CCCCOC(=O)N3CC[C@@](C(=O)N[C@@H](Cc4ccccc4C(F)(F)F)C(=O)N[C@@H](Cc4csc5ccccc45)C(=O)N[C@@H](CCC(N)=O)C(=O)N[C@H](C(=O)N[C@@H](C)C(N)=O)C(C)C)(C3)NC(=O)[C@H](CC(C)C)NC(=O)[C@H](Cc3ccccc3)NC(=O)[C@H](C)NC(=O)[C@H](C)NC(=O)[C@H](Cc3cccc(C(=O)O)c3)NC(=O)[C@H](CC(=O)O)NC1=O)NC(=O)[C@H](CC(C)(C)C)NC(=O)[C@H](CC(=O)O)NC2=O (stereo partly drawn) 0.037

Record request: IC50 value, item CC(=O)N1CCC[C@]12CCCCC1(CCCCCCCCOC(=O)N3CC[C@](C(=O)N[C@@H](Cc4ccsc4)C(=O)N[C@@H](Cc4csc5ccccc45)C(=O)N[C@@H](CCC(N)=O)C(N)=O)(C3)NC(=O)[C@H](CC(C)C)NC(=O)[C@H](Cc3ccccc3)NC(=O)[C@H](C)NC(=O)[C@H](C)NC(=O)[C@H](CC(=O)O)NC(=O)[C@H](CC(=O)O)NC1=O)NC(=O)[C@H](CC(C)(C)C)NC(=O)[C@H](CC(=O)O)NC2=O (stereo partly drawn) 1.16

Record request: IC50 value, item CC(=O)N1CCC[C@]12CC=CCCCC1(CCCC=CCCCOC(=O)N3CC[C@@](C(=O)N[C@@H](Cc4ccccc4)C(=O)N[C@@H](Cc4csc5ccccc45)C(=O)N[C@@H](CC(=O)N4CCOCC4)C(N)=O)(C3)NC(=O)[C@H](CC(C)C)NC(=O)[C@H](Cc3ccccc3)NC(=O)[C@H](C)NC(=O)[C@H](CCC(=O)N(C)C)NC(=O)[C@H](CCC(N)=O)NC(=O)[C@H](CC(=O)O)NC1=O)NC(=O)[C@H](CC1CCCCC1)NC(=O)[C@H](CC(N)=O)NC2=O (stereo partly drawn) 0.154

Record request: IC50 value, item CC(=O)N1CCC[C@]12CC=CCCCC1(CCCC=CCCCOC(=O)N3CC[C@@](C(=O)N[C@@H](Cc4ccsc4)C(=O)N[C@@H](Cc4csc5ccccc45)C(=O)N[C@@H](CCC(N)=O)C(N)=O)(C3)NC(=O)[C@H](CC(C)C)NC(=O)[C@H](Cc3ccccc3)NC(=O)[C@H](C)NC(=O)[C@H](C)NC(=O)[C@H](CN(CC(=O)O)C(=O)c3ccccn3)NC(=O)[C@H](CC(=O)O)NC1=O)NC(=O)[C@H](CC(C)(C)C)NC(=O)[C@H](CC(=O)O)NC2=O (stereo partly drawn) 0.005
